Reference source for all entries: patent US5925618A

- TGT: rat SSTR2 (Rattus norvegicus, UniProt P30680)
- Construct: expressed in transfected cells; host or cells: GH4C1 rat pituitary tumor cells
- Sequence (P30680 whole entry): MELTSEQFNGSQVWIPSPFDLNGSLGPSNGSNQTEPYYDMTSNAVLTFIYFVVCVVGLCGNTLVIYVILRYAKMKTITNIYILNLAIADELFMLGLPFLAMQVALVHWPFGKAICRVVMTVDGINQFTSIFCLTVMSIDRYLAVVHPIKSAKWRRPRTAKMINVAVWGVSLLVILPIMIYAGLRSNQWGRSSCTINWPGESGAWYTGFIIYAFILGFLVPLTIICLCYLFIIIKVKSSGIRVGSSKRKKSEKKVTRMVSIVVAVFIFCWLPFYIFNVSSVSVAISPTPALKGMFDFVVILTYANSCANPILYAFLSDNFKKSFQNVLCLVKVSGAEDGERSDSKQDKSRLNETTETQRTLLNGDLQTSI
- ASSAY: cAMP accumulation in forskolin-stimulated GH4 C1/SSTR2 cells
- Format: cell-based
- MEASUREMENT SETUP: GH4-C1; test peptide 2 μM; read-out: cAMP Assay, Intrinsic activity (percent reversal of SSTR2 activation by SRIF or MK678)
Square brackets hold non-standard residues; d marks the D form. Peptide text beside a SMILES is read from it.
Reported values of Emax for individual entries
Answer with the value and then the unit.

Worked examples, 2 molecules total:
MOLECULE | TEST VALUE
CC[C@@H](C)[C@@H](NC(=O)[C@@H](Cc1ccccc1)NC(=O)[C@@H](Cc1c[nH]cn1)NC(C)=O)C(=O)N[C@H](CCCNC(=N)N)C(=O)N[C@H](Cc1c[nH]c2ccccc12)C(N)=O [Peptide 12, h-f-i-r-w] (Ac-[dH][dF][dI][dR][dW]-NH2) | 29.1%
CC[C@@H](C)[C@@H](NC(=O)[C@@H](Cc1c[nH]cn1)NC(=O)[C@@H](Cc1ccccc1)NC(C)=O)C(=O)N[C@H](CCCNC(=N)N)C(=O)N[C@H](Cc1c[nH]c2ccccc12)C(=O)N[C@H](Cc1ccccc1)C(N)=O [Peptide 24, f-h-i-r-w-f] (Ac-[dF][dH][dI][dR][dW][dF]-NH2) | 65.2%

Give its Emax value. Item: CC[C@@H](C)[C@@H](NC(=O)[C@@H](CCCNC(=N)N)NC(=O)[C@@H](Cc1ccccc1)NC(C)=O)C(=O)N[C@H](CCCNC(=N)N)C(=O)N[C@H](Cc1c[nH]c2ccccc12)C(=O)N[C@H](Cc1ccccc1)C(N)=O [Peptide 25, f-r-i-r-w-f] (Ac-[dF][dR][dI][dR][dW][dF]-NH2)
10.8%

Name the recorded Emax for CC(=O)N[C@H](Cc1c[nH]cn1)C(=O)N[C@H](Cc1ccccc1)C(=O)N[C@@H](C(=O)N[C@H](CCCNC(=N)N)C(=O)N[C@H](Cc1c[nH]c2ccccc12)C(=O)N[C@H](Cc1ccccc1)C(N)=O)C(C)C [Peptide 28, h-f-v-r-w-f] (Ac-[dH][dF][dV][dR][dW][dF]-NH2) .
71.2%

Requested read-out: Emax. Entry: CC[C@@H](C)[C@@H](NC(=O)[C@@H](Cc1ccccc1)NC(=O)[C@@H](Cc1c[nH]cn1)NC(C)=O)C(=O)N[C@H](CCCNC(=N)N)C(=O)N[C@H](Cc1c[nH]c2ccccc12)C(=O)N[C@@H](Cc1ccccc1)C(N)=O [Peptide 18, h-f-i-r-w-F] (Ac-[dH][dF][dI][dR][dW]F-NH2)
46.7%

Given the entry CC[C@@H](C)[C@@H](NC(=O)[C@@H](Cc1ccccc1)NC(C)=O)C(=O)N[C@H](CCCNC(=N)N)C(=O)N[C@H](Cc1c[nH]c2ccccc12)C(=O)N[C@H](Cc1ccccc1)C(N)=O [Peptide 7, f-i-r-w-f] (Ac-[dF][dI][dR][dW][dF]-NH2) , report its measured Emax.
-7.2%

Form field: reported Emax of CC[C@@H](C)[C@@H](NC(=O)[C@@H](Cc1ccccc1)NC(=O)[C@@H](Cc1c[nH]cn1)NC(C)=O)C(=O)N[C@H](CCCCN)C(=O)N[C@H](Cc1c[nH]c2ccccc12)C(=O)N[C@H](Cc1ccccc1)C(N)=O [Peptide 27, h-f-i-k-w-f] (Ac-[dH][dF][dI][dK][dW][dF]-NH2)
71.2%

Emax for CC[C@@H](C)[C@@H](NC(=O)[C@@H](Cc1ccc(O)cc1)NC(=O)[C@@H](Cc1c[nH]cn1)NC(C)=O)C(=O)N[C@H](CCCNC(=N)N)C(=O)N[C@H](Cc1c[nH]c2ccccc12)C(=O)N[C@H](Cc1ccccc1)C(N)=O [Peptide 20, h-y-i-r-w-f] (Ac-[dH][dY][dI][dR][dW][dF]-NH2) ?
56.5%

Field request: Emax | item: CC[C@@H](C)[C@@H](NC(=O)[C@@H](C)NC(=O)[C@@H](Cc1c[nH]cn1)NC(C)=O)C(=O)N[C@H](CCCNC(=N)N)C(=O)N[C@H](Cc1c[nH]c2ccccc12)C(=O)N[C@H](Cc1ccccc1)C(N)=O [Peptide 3, h-a-i-r-w-f] (Ac-[dH][dA][dI][dR][dW][dF]-NH2)
9.33%
